Molecular target: recombinant human Nav1.7 (Homo sapiens (Human))
Sequence (Q15858 whole entry): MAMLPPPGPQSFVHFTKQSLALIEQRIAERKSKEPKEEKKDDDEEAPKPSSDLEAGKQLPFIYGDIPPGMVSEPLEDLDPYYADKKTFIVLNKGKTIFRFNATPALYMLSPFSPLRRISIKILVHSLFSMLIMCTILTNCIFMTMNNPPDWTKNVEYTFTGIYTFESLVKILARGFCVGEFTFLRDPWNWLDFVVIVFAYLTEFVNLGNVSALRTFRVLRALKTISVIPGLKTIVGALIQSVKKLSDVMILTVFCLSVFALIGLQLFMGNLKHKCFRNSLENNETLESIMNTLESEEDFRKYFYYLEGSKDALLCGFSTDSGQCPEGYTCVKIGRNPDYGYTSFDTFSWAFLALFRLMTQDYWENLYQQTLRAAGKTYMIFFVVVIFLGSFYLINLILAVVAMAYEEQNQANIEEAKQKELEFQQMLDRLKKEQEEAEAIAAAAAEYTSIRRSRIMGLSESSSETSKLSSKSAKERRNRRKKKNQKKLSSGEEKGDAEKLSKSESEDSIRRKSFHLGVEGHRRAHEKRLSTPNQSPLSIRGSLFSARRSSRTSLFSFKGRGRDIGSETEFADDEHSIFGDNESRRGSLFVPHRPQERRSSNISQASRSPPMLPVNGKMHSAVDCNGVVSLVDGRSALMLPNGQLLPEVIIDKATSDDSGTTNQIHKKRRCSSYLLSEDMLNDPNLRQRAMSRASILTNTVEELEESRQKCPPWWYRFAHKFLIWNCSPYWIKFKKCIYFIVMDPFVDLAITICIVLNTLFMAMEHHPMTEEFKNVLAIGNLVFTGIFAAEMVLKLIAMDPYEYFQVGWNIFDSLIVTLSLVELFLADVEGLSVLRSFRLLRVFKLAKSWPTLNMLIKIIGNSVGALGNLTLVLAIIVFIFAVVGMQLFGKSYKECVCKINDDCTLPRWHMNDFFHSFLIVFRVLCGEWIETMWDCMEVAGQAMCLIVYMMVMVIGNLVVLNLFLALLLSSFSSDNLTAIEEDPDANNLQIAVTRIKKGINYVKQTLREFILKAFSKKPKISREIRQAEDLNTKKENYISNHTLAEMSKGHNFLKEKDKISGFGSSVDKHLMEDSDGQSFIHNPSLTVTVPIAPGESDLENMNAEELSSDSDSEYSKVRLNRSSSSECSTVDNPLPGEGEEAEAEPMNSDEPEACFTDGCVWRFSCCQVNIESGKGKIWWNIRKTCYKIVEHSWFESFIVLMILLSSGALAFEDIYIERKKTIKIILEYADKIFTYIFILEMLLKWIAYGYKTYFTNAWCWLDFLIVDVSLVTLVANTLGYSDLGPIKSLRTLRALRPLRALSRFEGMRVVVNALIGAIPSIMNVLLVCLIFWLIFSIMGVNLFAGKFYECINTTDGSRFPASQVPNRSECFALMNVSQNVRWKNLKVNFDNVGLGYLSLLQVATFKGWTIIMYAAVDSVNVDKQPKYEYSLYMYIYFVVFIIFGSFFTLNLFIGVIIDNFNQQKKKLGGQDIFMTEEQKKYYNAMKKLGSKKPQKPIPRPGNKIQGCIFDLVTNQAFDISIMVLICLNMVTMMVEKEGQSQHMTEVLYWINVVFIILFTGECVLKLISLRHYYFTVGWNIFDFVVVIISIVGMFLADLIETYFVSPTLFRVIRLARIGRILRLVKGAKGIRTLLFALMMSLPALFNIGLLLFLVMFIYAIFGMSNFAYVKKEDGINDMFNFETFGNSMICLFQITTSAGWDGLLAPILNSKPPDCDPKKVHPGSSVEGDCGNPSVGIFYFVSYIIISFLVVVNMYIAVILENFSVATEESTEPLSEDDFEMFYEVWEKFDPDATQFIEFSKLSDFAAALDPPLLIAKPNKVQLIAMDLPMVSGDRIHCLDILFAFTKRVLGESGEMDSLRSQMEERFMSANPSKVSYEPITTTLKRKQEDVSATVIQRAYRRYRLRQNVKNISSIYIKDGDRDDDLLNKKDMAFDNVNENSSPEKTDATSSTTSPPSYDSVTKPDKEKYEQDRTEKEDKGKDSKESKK
Experiment: FRET-based membrane potential assay, recombinant human sodium channel Nav1.7
Format: cell-based
Conditions: HEK293 cells stably expressing recombinant human Nav1.7; veratridine + scorpion venom depolarization; read-out: FRET-Membrane Potential Nav1.7 IC50
Known IC50 of a selection of molecules
All answers are understood in µM, so give the number only.

Look over these answered cases.
molecule	endpoint result
O=C(c1ccc2cc(Oc3ccc(C(F)(F)F)cn3)ccc2n1)N1CC[C@@H](O)C1 [Example 282]	8.52
COCCNC(=O)c1ccc2cc(Oc3ccc(C(F)(F)F)cn3)ccc2n1 [Example 22]	1.98
O=C(c1ccc2cc(Oc3ccc(C(F)F)cn3)ccc2n1)N1CC[C@@H](F)C1 [Example 575]	12.1
O=C(c1ccc2cc(Oc3ccc(C(F)(F)F)nc3)ccc2n1)N1CCN[C@@H](CO)C1 [Example 544]	3.45
O=C(c1ccc2cc(Oc3ccc(C(F)(F)F)cn3)ccc2n1)N1CCC(C(F)(F)F)C1 (centres unmarked) [Example 414]	5.02

Prompt: What does the data say about its IC50? Entry: O=C(c1ccc2cc(Oc3ccc(C(F)(F)F)nc3)ccc2n1)N1CC(N2CCOCC2)C1 [Example 554]
Completion: 14.1

Prompt: Param item: N#Cc1ccc(Oc2ccc3nc(C(=O)N[C@H]4CC[C@@H](O)C4)ccc3c2)cc1 [Example 130]
Completion: 2.05

Prompt: Param item: N#Cc1ccc(Oc2ccc3nc(C(=O)N[C@H]4CC[C@@H](O)CC4)ccc3c2)cc1 [Example 133]
Completion: 1.17

Prompt: Param item: O=C(NC1CCC1)c1ccc2cc(Oc3ccc(C(F)(F)F)cn3)ccc2n1 [Example 596]
Completion: 1.76

Prompt: Param item: O=C(c1ccc2cc(Oc3ccc(C(F)(F)F)cn3)ccc2n1)N1CCCNC1 [Example 233]
Completion: 0.586

Prompt: Param item: O=C(NCC(=O)N1CCOCC1)c1ccc2cc(Oc3ccc(C(F)F)cn3)ccc2n1 [Example 458]
Completion: 1.19

Prompt: Param item: CS(=O)(=O)NC(=O)c1ccc2cc(Oc3ccc(C(F)(F)F)cn3)ccc2n1 [Example 577]
Completion: 10.1

Prompt: Param item: CC1(O)CC(NC(=O)c2ccc3cc(Oc4ccc(C(F)(F)F)nc4)ccc3n2)C1 (centres unmarked) [Example 578]
Completion: 1.07

Prompt: Param item: CC[C@@H]1CN(C(=O)c2ccc3cc(Oc4ccc(C(F)F)cn4)ccc3n2)CCN1 [Example 55]
Completion: 0.594

Prompt: Param item: CO[C@@H]1CN(C(=O)c2ccc3cc(Oc4ccc(C(F)(F)F)cn4)ccc3n2)C[C@H]1O (relative stereo) [Example 305]
Completion: 13.6

Prompt: Param item: O=C(c1ccc2cc(Oc3ccc(C(F)(F)F)cn3)ccc2n1)N1CCNCC1C(F)(F)F (centres unmarked) [Example 598]
Completion: 2.98

Prompt: Param item: COC1CN(C(=O)c2ccc3cc(Oc4ccc(C(F)(F)F)cn4)ccc3n2)C1 [Example 396]
Completion: 1.94
